Kindly state interaction score for each of the entries shown.
# target.under.test: T1, 4H741-bA
# T1 chain: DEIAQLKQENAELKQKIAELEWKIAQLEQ
# experimental.details: two-hybrid library CCNG1;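 note: natural log of median RNA to DNA barcode read ratio; higher means stronger binding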

DKIAQLKQKNAELKQKNAELEWEIAQLEQ [4H3057-bA] | -1.38
DKIAQLEQENAELEQKIAELKWKNAQLEQ [4H2223-bA] | 0.169
DKIAQLEQKNAELEQKIAELKWEIAQLEQ [4H2473-bA] | -1.42

As a next step, examine the binder that follows.
The reported interaction score of the binder DEIAQLEQKIAELKQENAELKWENAQLKQ [4H348-bA] was -0.761

Data provenance: paper PMC10397247
